Test system: Saccharomyces cerevisiae
Test: protein stability index of tFT-peptide fusion (C-terminal peptide) (PSI (0-1 scale)); higher = more stable (slower turnover)
Conditions: genetic background: das1 deletion; temperature: 30 C
Consider the following partition of reported protein stability index into named classes: bottom end: < 0.3; midrange: ≥ 0.3 and < 0.4; top end: ≥ 0.4

>  <Chain>
LLTLILRIFVLN

>  <Target Or System>
Saccharomyces cerevisiae

>  <Class Assignment>
midrange

$$$$
>  <Chain>
FCDFLFVFPLFS

>  <Target Or System>
Saccharomyces cerevisiae

>  <Class Assignment>
top end

$$$$
>  <Chain>
YLGSLQVPVHLF

>  <Target Or System>
Saccharomyces cerevisiae

>  <Class Assignment>
top end

$$$$
>  <Chain>
YCAMVAVGVVGG

>  <Target Or System>
Saccharomyces cerevisiae

>  <Class Assignment>
midrange

$$$$
>  <Chain>
GNSAGSVGGGRF

>  <Target Or System>
Saccharomyces cerevisiae

>  <Class Assignment>
top end

$$$$
>  <Chain>
LIFRLCVCGVFW

>  <Target Or System>
Saccharomyces cerevisiae

>  <Class Assignment>
top end

$$$$
>  <Chain>
SLALLFSFLLFL

>  <Target Or System>
Saccharomyces cerevisiae

>  <Class Assignment>
top end

$$$$
>  <Chain>
YLFFHMVVLVVV

>  <Target Or System>
Saccharomyces cerevisiae

>  <Class Assignment>
bottom end

$$$$
>  <Chain>
GLYLVFMGFVPC

>  <Target Or System>
Saccharomyces cerevisiae

>  <Class Assignment>
midrange

$$$$
>  <Chain>
FLPFRVFNFSLV

>  <Target Or System>
Saccharomyces cerevisiae

>  <Class Assignment>
top end

$$$$
>  <Chain>
VVCLLGIFYGFC

>  <Target Or System>
Saccharomyces cerevisiae

>  <Class Assignment>
midrange

$$$$
>  <Chain>
FFSFLFLLLFGA

>  <Target Or System>
Saccharomyces cerevisiae

>  <Class Assignment>
top end

$$$$
>  <Chain>
VGRVIVIVVAGV

>  <Target Or System>
Saccharomyces cerevisiae

>  <Class Assignment>
bottom end

$$$$
>  <Chain>
SCLVLDYCFSLV

>  <Target Or System>
Saccharomyces cerevisiae

>  <Class Assignment>
top end

$$$$
>  <Chain>
VFRRWGLIGVIV

>  <Target Or System>
Saccharomyces cerevisiae

>  <Class Assignment>
bottom end

$$$$
>  <Chain>
PHGASLCVPPSP

>  <Target Or System>
Saccharomyces cerevisiae

>  <Class Assignment>
top end

$$$$
>  <Chain>
PRHLTPPPAPSA

>  <Target Or System>
Saccharomyces cerevisiae

>  <Class Assignment>
top end

$$$$
>  <Chain>
VRVLPFCWCIVR

>  <Target Or System>
Saccharomyces cerevisiae

>  <Class Assignment>
bottom end

$$$$
>  <Chain>
CVLVLLLRLAFL

>  <Target Or System>
Saccharomyces cerevisiae

>  <Class Assignment>
top end

$$$$
>  <Chain>
WFLMVILYTVYG

>  <Target Or System>
Saccharomyces cerevisiae

>  <Class Assignment>
bottom end

$$$$
>  <Chain>
SPIGIFCFILCR

>  <Target Or System>
Saccharomyces cerevisiae

>  <Class Assignment>
bottom end

$$$$
>  <Chain>
CFCVSVHVWLLM

>  <Target Or System>
Saccharomyces cerevisiae

>  <Class Assignment>
bottom end

$$$$
>  <Chain>
LSQPGWFKCCLS

>  <Target Or System>
Saccharomyces cerevisiae

>  <Class Assignment>
top end

$$$$
>  <Chain>
FPRPLPVPLAVS

>  <Target Or System>
Saccharomyces cerevisiae

>  <Class Assignment>
bottom end

$$$$
>  <Chain>
SVVWIRFVGVRV

>  <Target Or System>
Saccharomyces cerevisiae

>  <Class Assignment>
midrange

$$$$
>  <Chain>
CFVICVCLCFGR

>  <Target Or System>
Saccharomyces cerevisiae

>  <Class Assignment>
bottom end

$$$$
>  <Chain>
ACVRLVLCVCRV

>  <Target Or System>
Saccharomyces cerevisiae

>  <Class Assignment>
bottom end

$$$$
>  <Chain>
CRLFFVFVFFWW

>  <Target Or System>
Saccharomyces cerevisiae

>  <Class Assignment>
bottom end

$$$$
>  <Chain>
VRNKFSYVLRLN

>  <Target Or System>
Saccharomyces cerevisiae

>  <Class Assignment>
top end

$$$$
>  <Chain>
DIRLWISCTLWF

>  <Target Or System>
Saccharomyces cerevisiae

>  <Class Assignment>
bottom end

$$$$
>  <Chain>
VGEQEVVGIGGV

>  <Target Or System>
Saccharomyces cerevisiae

>  <Class Assignment>
top end

$$$$
>  <Chain>
SWWISKWVGLNC

>  <Target Or System>
Saccharomyces cerevisiae

>  <Class Assignment>
top end

$$$$
>  <Chain>
GLCGVCLVRCVG

>  <Target Or System>
Saccharomyces cerevisiae

>  <Class Assignment>
bottom end

$$$$
>  <Chain>
GFPFLFILYFLC

>  <Target Or System>
Saccharomyces cerevisiae

>  <Class Assignment>
bottom end

$$$$
>  <Chain>
FFSFFLSFRLWF

>  <Target Or System>
Saccharomyces cerevisiae

>  <Class Assignment>
top end

$$$$
>  <Chain>
CKYCKCVVLLWS

>  <Target Or System>
Saccharomyces cerevisiae

>  <Class Assignment>
midrange

$$$$
>  <Chain>
HLYPFPSLHFAF

>  <Target Or System>
Saccharomyces cerevisiae

>  <Class Assignment>
top end

$$$$
>  <Chain>
VRLHIAMWLRRC

>  <Target Or System>
Saccharomyces cerevisiae;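 also: PSI is a weighted mean of sequencing reads over stability bins, variants kept only with over 10 reads, mCherry proximal and sfGFP distal, peptide attached via GGGS linker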

>  <Class Assignment>
midrange

$$$$
